Reference source for all entries: ChEMBL document CHEMBL5236552

Molecular target: Cytochrome P450 1A2 (Homo sapiens, UniProt P05177)
Sequence (P05177 whole entry): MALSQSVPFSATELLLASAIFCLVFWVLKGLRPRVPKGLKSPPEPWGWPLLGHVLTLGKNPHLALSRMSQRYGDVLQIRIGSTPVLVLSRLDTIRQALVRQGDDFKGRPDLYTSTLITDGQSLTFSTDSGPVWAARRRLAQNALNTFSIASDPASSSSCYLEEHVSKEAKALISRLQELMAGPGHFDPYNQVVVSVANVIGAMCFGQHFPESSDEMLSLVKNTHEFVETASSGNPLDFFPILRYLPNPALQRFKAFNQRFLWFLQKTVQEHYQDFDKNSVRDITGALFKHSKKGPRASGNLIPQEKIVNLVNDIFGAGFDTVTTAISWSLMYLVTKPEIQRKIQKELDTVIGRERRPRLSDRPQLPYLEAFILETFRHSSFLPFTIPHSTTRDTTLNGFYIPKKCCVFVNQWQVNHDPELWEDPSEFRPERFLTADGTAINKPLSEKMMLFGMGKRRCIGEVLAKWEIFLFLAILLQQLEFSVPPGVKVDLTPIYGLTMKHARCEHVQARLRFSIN
pIC50: −log10 of the molar value.
QUANTITY KIND: pIC50

Prompt: If you can, please state the reported pIC50 value of O=C(c1cccnc1-c1ccncc1)N1CCC(O)(Cc2ccccc2)CC1 .
Completion: < 4.00
